Data credit: PubChem BioAssay (NCI)

Tested on: NCI-H322M lung
Experiment: NCI-60 one-dose screen, 48 h (100 = growth as untreated, 0 = no growth, -100 = all killed)
Settings: 10 µM unless noted
Compounds without any hit were thinned out: in the full panel of roughly 83,000, 20% have a hit. Active and inactive are the calls of the source. Rule for the calls: active = growth percent below 10; inactive = the rest.
Attribute Measured: growth

# count of solved cases: 6
Compound	growth
C=C(C)[C@@H]1CC[C@]2(C(N)=O)CC[C@]3(C)[C@H](CC[C@@H]4[C@@]5(C)C/C(=C/c6cccnc6)C(=O)C(C)(C)[C@@H]5CC[C@]43C)[C@@H]12	12.7% [100 µM] (inactive)
Cc1cccc(C[C@H](NC(=O)Nc2ccc(Cl)cc2F)C(=O)N[C@@H]2C(=O)N3C[C@H](O)C[C@H]3C(=O)N3CCN(C)C[C@H]3C(=O)N[C@@H](C)C(=O)N3C[C@H](C)C[C@H]3C(=O)O[C@H]2C)c1	65.7% (inactive)
c1cc2ccc1CNCCN1CCNCc3ccc(cc3)Oc3ccc(cc3)CNCCN(CCNCc3ccc(cc3)O2)CCNCc2ccc(cc2)Oc2ccc(cc2)CNCC1	-28.5% (active)
O=C(N/N=C/c1ccc([N+](=O)[O-])cc1)c1ccc(Br)o1	129% (inactive)
O=C1NC(=O)C(Cc2ccc(OCc3ccc(-c4cc(F)c(F)c(F)c4)cc3)cc2)S1 (configuration not stated)	92.4% (inactive)
O=C1COCCN1c1ccc(NCc2cn(Cc3ccccc3)c3ccccc23)cc1	86.1% (inactive)

Data request: # lookup: growth of c1ccc(-c2n[nH]c(-c3ccccn3)n2)nc1
Data returned: 121% (inactive)

----------
Test system: MOLT-4 leukemia
Test: NCI-60 one-dose screen, 48 h (100 = growth as untreated, 0 = no growth, -100 = all killed)
Settings: 10 µM unless noted
Compounds without any hit were thinned out: in the full panel of roughly 83,000, 20% have a hit. Active and inactive are the calls of the source. How the source made its calls: active means growth percent below 10; inactive means the rest.
Listed here: items and their measured growth.

# count of solved cases: 6
Compound	System Under Test	growth
CC(=O)Nc1ccc2nc3ccc(NC(C)=O)cc3[n+](-c3ccccc3)c2c1	MOLT-4 leukemia	38.9% (inactive)
O=C1Nc2ccccc2/C1=C/C(=O)c1ccc(N2CCCCC2)cc1	MOLT-4 leukemia	-6.75% (active)
C=C(C)[C@@H]1CC[C@]2(C(=O)NCCNCCNC(=O)OC(C)(C)C)CC[C@]3(C)[C@H](CC[C@@H]4[C@@]5(C)CCC(=O)C(C)(C)[C@@H]5CC[C@]43C)[C@@H]12	MOLT-4 leukemia	11.7% [100 µM] (inactive)
N/C(=N\c1nc2ccccc2[nH]1)NC(=O)Cc1cccc2ccccc12	MOLT-4 leukemia	30.4% (inactive)
CCCSc1nc(N)nc2nc[nH]c12	MOLT-4 leukemia	121% (inactive)
CC(C)=CCC[C@](C)(O)[C@H]1CC[C@]2(C)[C@@H]1CC[C@@H]1[C@@]3(C)CC[C@H](OC(=O)CCC(=O)O)C(C)(C)[C@@H]3CC[C@]12C	MOLT-4 leukemia	5.86% [100 µM] (active)

Data request: # lookup: growth of CC(C)=CC/C=C(/C)[C@H]1CC[C@]2(C)[C@@H]1CC[C@@H]1[C@@]3(C)CCCNC(C)(C)[C@@H]3CC[C@]12C
Data returned: -25.6% [100 µM] (active)

Data request: # lookup: growth of c1ccc(-c2nc(N3CCCNCC3)c3nc(-c4ccccc4)oc3n2)cc1
Data returned: 0.525% (active)

Data request: # lookup: growth of CCOC(=O)c1nc2c3ccccc3ccn2c1C(=O)OC
Data returned: 84.5% (inactive)

Data request: # lookup: growth of C=C(C)[C@@H]1CC[C@]2(C(N)=O)CC[C@]3(C)[C@H](CC[C@@H]4[C@@]5(C)CC[C@H](O)C(C)(C)[C@@H]5CC[C@]43C)[C@@H]12
Data returned: 1.86% [100 µM] (active)

Data request: # lookup: growth of O=[N+]([O-])c1cccc(/C=C/c2ccc3ccccc3n2)c1
Data returned: 75.3% (inactive)

Data request: # lookup: growth of Cc1cc(C)c(S(=O)(=O)/N=c2/n(-c3ccccc3)nc3n2CCN3C2=NCCN2)c(C)c1
Data returned: 66.2% (inactive)

Data request: # lookup: growth of COc1cc2c(c(OC)c1OC)-c1ccc(NNC(N)=S)c(=O)cc1[C@@H](NC(C)=O)CC2
Data returned: 23.1% (inactive)

Data request: # lookup: growth of O=C(CCCSc1nc(-c2ccccc2)cc(-c2ccccc2)n1)NO
Data returned: 4.55% (active)

Data request: # lookup: growth of CCCCC1COc2cccc3c2N1C=C/C3=C\C(=O)n1ccc2ccccc21 (stereo not drawn)
Data returned: 40.9% (inactive)

Data request: # lookup: growth of O=[N+]([O-])c1cc([N+](=O)[O-])c(C(F)(F)F)cc1NN=C(c1ccc(O)cc1)c1ccc(O)cc1
Data returned: 107% (inactive)

Data request: # lookup: growth of CN(C)c1ccc(-c2ccc(-c3ccc(C(=N)N)cc3)s2)cc1
Data returned: 2.73% (active)

Data request: # lookup: growth of Cc1ccc(-c2cc(-c3ccc(C)cc3)nc(NCCNc3ccnc4cc(Cl)ccc34)n2)cc1
Data returned: -29.6% (active)

----------
Test system: NCI-H522 lung
Test: NCI-60 one-dose screen, 48 h (100 = growth as untreated, 0 = no growth, -100 = all killed)
Settings: 10 µM unless noted
This is part of a sample that, as a whole, favours compounds with a hit. Of some 83,000 tested, about 20% had one in any assay. Active and inactive are the calls of the source. How the source made its calls: active means growth percent below 10; inactive means the rest.
Attribute Measured: growth

C[n+]1c(-c2ccccc2)c2cc(N)ccc2c2ccccc21 -5.84% (active)

Data request: # lookup: growth of Clc1ccc(N2CCN(CCCN3CCN(c4cccc(Cl)c4)CC3)CC2)cc1
Data returned: 59.5% (inactive)

Data request: # lookup: growth of O=C1C(Cl)=C(Nc2ccc3cn[nH]c3c2)C(=O)c2ccccc21
Data returned: -84.7% (active)

Data request: # lookup: growth of O=C(O)c1cn(C2CC2)c2cc(N3CCN(Cc4cc(Cl)ccc4O)CC3)c(F)cc2c1=O
Data returned: 67.5% (inactive)

Data request: # lookup: growth of COc1ccc(/C=C(/C(=O)c2ccc(Cl)cc2)C(=O)C(F)(F)F)cc1
Data returned: 74.8% (inactive)

----------
Listed here: items and their measured growth.
System: IGROV1 ovarian
Assay: NCI-60 one-dose screen, 48 h (100 = growth as untreated, 0 = no growth, -100 = all killed)
Settings: 10 µM unless noted
This is part of a sample that, as a whole, favours compounds with a hit. Of some 83,000 tested, about 20% had one in any assay.
# number only, unit % dropped from output

# count of solved cases: 3
Molecule	Result Value
CCCn1ccnc1C(O)c1ccc(OCc2ccccc2)c(OC)c1 (stereo not given)	96.9
Cn1cc(-c2nnc(-c3cn(C)c4ncc(Br)cc34)s2)c2cc(Br)ccc21	73.9
c1cc2ccc3cc2cc1CNCCN1CCNCc2ccc4ccc(cc4c2)CNCCN(CCNC3)CCNCc2ccc3ccc(cc3c2)CNCC1	21.9

Data request: # lookup: growth of Cn1cc(-c2nnc(-c3cn(C)c4ncccc34)s2)c2ccccc21
Data returned: 70.2

Data request: # lookup: growth of Cc1cnc(N)nc1OCCNC(=O)c1cccc(-c2ccc(S(=O)(=O)Nc3ccc4c(c3)N(C(=O)C3CC3)CCC4)cc2)c1
Data returned: 74

----------
Tested on: MDA-MB-231 breast
Assay: NCI-60 one-dose screen, 48 h
Conditions: 10 µM unless noted
About 83,000 compounds went through this panel and 20% of them were active in at least one assay; those are over-represented in the sample as a whole. Activity calls are given as the source filed them. The calls were made as follows: active = growth percent below 10; inactive = the rest.
Response enum: Y = active, N = inactive

For orientation, consider the following solved cases.
Compound	Category Label
Cc1nc(Cl)c2c(n1)N(C)c1ccc(Cl)cc1C(C)C2 (stereo not drawn)	N
CC[C@@H]1NC(=O)[C@@H]2CCCCN2C(=O)[C@@H]2CCCN2C(=O)[C@@H](NC(=O)[C@H](Cc2cc(F)cc(F)c2)NC(=O)Nc2ccc(C3CC3)cc2F)[C@H](C)OC(=O)[C@@H]2C[C@@H](C)CN2C1=O	Y
ClC1=C(Cl)C(Cl)=C(Cl)C1=Cc1ccccc1	Y

Data request: For CC(C)[C@H]1CCC2=C3CC[C@]45OC(=O)[C@@]6(CCC(C)(C)C[C@H]64)CC[C@@]5(C)[C@]3(C)CC[C@@]21C , which call appears in the assay record?
Data returned: N

Data request: For CC1Cc2c(ncnc2-n2cnc3ccccc32)N(C)c2ccccc21 (stereo not drawn) , which call appears in the assay record?
Data returned: N

Data request: For NS(=O)(=O)c1ccc(CCN2C(=O)/C(=C\c3ccccc3)C=C2c2ccc(Cl)cc2)cc1 , which call appears in the assay record?
Data returned: N

Data request: For CC(C)=CC/C=C(/C)[C@H]1CC[C@]2(C)[C@@H]1CC[C@@H]1[C@@]3(C)CCC(=O)NC(C)(C)[C@@H]3CC[C@]12C , which call appears in the assay record?
Data returned: Y

Data request: For CN(C)c1ccc(-c2ccc(-c3ccc(C(=N)N)cc3)s2)cc1 , which call appears in the assay record?
Data returned: Y

Data request: For CC(C)C1=NOC(=O)C1=Cc1cn(-c2ccco2)nc1-c1ccccc1 , which call appears in the assay record?
Data returned: N
